target: α4β1 integrin (Homo sapiens (Human), UniProt P05556+P13612); assay: Integrin Adhesion Assay: Protocol 5 (VCAM-coated plate, RPMI-8866 cells with stable LOF mutation of the ITGB7 gene); assay type: cell-based; conditions: RPMI-8866 cells with stable LOF mutation of the ITGB7 gene; read-out: Mean IC50 α4β1 KO^b
Sequence (P13612 34-1032): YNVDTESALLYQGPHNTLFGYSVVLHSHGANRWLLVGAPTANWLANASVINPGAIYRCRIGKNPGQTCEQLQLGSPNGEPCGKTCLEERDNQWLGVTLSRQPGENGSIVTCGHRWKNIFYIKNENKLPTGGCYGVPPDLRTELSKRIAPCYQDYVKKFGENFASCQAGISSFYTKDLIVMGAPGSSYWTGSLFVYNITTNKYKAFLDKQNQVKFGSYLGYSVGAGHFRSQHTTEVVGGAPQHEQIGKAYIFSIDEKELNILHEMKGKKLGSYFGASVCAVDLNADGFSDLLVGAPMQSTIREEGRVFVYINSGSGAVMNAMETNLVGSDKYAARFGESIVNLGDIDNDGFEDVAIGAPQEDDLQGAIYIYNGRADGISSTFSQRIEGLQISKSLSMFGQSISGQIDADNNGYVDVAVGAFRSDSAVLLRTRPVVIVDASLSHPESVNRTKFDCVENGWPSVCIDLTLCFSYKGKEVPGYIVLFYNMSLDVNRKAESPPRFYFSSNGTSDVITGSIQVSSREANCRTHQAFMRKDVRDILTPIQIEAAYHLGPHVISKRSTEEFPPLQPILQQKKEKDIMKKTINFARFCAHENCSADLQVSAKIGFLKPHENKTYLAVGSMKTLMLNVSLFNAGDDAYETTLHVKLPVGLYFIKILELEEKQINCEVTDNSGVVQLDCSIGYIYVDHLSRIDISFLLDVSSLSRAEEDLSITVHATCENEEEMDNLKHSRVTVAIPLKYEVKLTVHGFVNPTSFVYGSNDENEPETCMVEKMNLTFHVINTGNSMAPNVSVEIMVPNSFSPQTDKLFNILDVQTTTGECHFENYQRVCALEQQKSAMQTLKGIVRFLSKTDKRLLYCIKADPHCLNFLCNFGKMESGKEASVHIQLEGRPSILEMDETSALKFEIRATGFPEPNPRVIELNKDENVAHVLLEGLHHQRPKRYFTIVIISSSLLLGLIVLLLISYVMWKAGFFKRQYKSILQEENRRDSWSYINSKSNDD
Sequence (P05556 21-798): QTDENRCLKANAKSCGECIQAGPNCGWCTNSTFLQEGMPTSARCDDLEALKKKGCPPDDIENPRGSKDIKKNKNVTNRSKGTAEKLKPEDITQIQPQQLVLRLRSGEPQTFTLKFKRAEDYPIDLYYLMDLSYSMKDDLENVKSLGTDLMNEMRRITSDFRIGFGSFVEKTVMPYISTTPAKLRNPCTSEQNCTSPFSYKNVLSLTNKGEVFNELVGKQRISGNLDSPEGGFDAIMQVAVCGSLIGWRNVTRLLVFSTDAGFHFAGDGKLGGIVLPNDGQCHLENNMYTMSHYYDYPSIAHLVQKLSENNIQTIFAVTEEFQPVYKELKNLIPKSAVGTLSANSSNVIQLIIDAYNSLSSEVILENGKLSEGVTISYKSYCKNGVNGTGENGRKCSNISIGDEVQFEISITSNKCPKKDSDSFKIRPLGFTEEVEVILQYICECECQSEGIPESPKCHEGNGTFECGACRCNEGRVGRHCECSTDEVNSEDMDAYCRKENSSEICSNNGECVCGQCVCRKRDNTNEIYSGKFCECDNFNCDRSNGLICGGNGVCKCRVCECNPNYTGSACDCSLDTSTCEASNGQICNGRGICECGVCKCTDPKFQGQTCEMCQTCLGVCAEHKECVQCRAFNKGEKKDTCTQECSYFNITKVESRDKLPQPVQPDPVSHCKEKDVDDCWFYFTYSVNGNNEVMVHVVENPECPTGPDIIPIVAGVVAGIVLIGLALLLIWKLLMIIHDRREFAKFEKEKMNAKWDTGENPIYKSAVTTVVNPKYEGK
pIC50: −log10 of the molar value.
QUANTITY_MEASURED: pIC50

In [3]: df
Out[3]:
                                   compound  value_reported
0  O=C(O)[C@H](Cc1cccc2c(-c3nccc4c(CN5CCC(F)(F)C5)cccc34)cccc12)NC(=O)C1(C(F)(F)F)CCN(C2COC2)CC1    6.00 to 7.00

Short answer please: pIC50, α4β1 integrin (Homo sapiens (Human), UniProt P05556+P13612), entry CN1CCCC1c1cc(-c2cccc3c(C[C@H](NC(=O)C4(C(F)(F)F)CCN(C5COC5)CC4)C(=O)O)cccc23)c2cnccc2c1 (stereo partly drawn)
6.00 to 7.00

Short answer please: pIC50, α4β1 integrin (Homo sapiens (Human), UniProt P05556+P13612), entry O=C(O)[C@H](Cc1cccc2c(-c3ncc(CN4CCCCC4)c4ccccc34)cccc12)NC(=O)C1(C(F)(F)F)CCN(CCC(F)(F)F)CC1
< 6.00

---

target: α4β1 integrin (Homo sapiens (Human), UniProt P05556+P13612); assay: Integrin Adhesion Assay: Protocol 5 (VCAM-coated plate, RPMI-8866 cells with stable LOF mutation of the ITGB7 gene); format: cell-based; conditions: Protocol 5; RPMI-8866 cells with LOF mutation of ITGB7, VCAM; read-out: Mean IC50 α4β1 KO
QUANTITY_MEASURED: IC50

>>> df
                                   compound                                    system  quantity_measured  value_reported
0  O=C(O)[C@H](Cc1cccc2c(-c3ncc(CCN4CCC[C@@H](F)C4)c4ccccc34)cccc12)NC(=O)C1(C(F)(F)F)CCN(CC(F)(F)F)CC1 [Compound 977]  α4β1 integrin (Homo sapiens (Human), UniProt P05556+P13612)               IC50       > 1000 nM
1  O=C(O)[C@H](Cc1cccc2c(-c3cc(CN4CCCCC4)cc4cccnc34)cccc12)NC(=O)C1(C(F)(F)F)CCN(CC(F)(F)F)CC1 [Compound 732]  α4β1 integrin (Homo sapiens (Human), UniProt P05556+P13612)               IC50       > 1000 nM

Name the reported IC50 value associated with the compound O=C(O)[C@H](Cc1cccc2c(-c3ncc(CN4CC(F)C4)c4ccccc34)cccc12)NC(=O)C1(C(F)(F)F)CCN(CC(F)(F)F)CC1 [Compound 865]
> 1000 nM

Name the reported IC50 value associated with the compound COc1ccc2c(CN3CCCCC3)ccnc2c1-c1cccc2c(C[C@H](NC(=O)C3(C(F)(F)F)CCN(CC(F)(F)F)CC3)C(=O)O)cccc12 [Compound 722]
10 to 100 nM

Name the reported IC50 value associated with the compound O=C(O)[C@H](Cc1cccc2c(-c3ncc(CN4CCC(F)(F)CC4)cc3C3CC3)cccc12)NC(=O)C1(C(F)(F)F)CCN(CC(F)(F)F)CC1 [Compound 947]
100 to 1000 nM

Name the reported IC50 value associated with the compound Cc1cc(CN2CCC(C)(C)CC2)cnc1-c1cccc2c(C[C@H](NC(=O)C3(C(F)(F)F)CCN(CC(F)F)CC3)C(=O)O)cccc12 [Compound 902]
> 1000 nM

Name the reported IC50 value associated with the compound COc1cc2c(c(OC)c1-c1cccc3c(C[C@H](NC(=O)C4(C(F)(F)F)CCN(CC(F)(F)F)CC4)C(=O)O)cccc13)CN(C1CCCCC1)CC2 [Compound 993]
100 to 1000 nM

Name the reported IC50 value associated with the compound O=C(O)[C@H](Cc1cccc2c(-c3nc(CN4CCCCC4)cc4ccccc34)cccc12)NC(=O)C1(C(F)(F)F)CCN(CC(F)(F)F)CC1 [Compound 988]
> 1000 nM

Name the reported IC50 value associated with the compound COc1cccc(CN2CCCC(F)C2)c1-c1cccc2c(C[C@H](NC(=O)c3c(C)cccc3F)C(=O)O)cccc12 (stereo partly drawn) [Compound 1015]
100 to 1000 nM

Name the reported IC50 value associated with the compound O=C(O)[C@H](Cc1cccc2c(-c3ccc(CN4CCCCC4)c4ccncc34)cccc12)NC(=O)C1(C(F)(F)F)CCN(CC(F)(F)F)CC1 [Compound 702]
> 1000 nM

Name the reported IC50 value associated with the compound COc1cccc(CCN2CCC(C)(C)CC2)c1-c1cccc2c(C[C@H](NC(=O)C3(C(F)(F)F)CCN(CC(F)(F)F)CC3)C(=O)O)cccc12 [Compound 960]
> 1000 nM

Name the reported IC50 value associated with the compound COc1ccc(CN2CC(C(F)(F)F)C2)c(OC)c1-c1cccc2c(C[C@H](NC(=O)C3(C(F)(F)F)CCN(CC(F)(F)F)CC3)C(=O)O)cccc12 [Compound 814]
> 1000 nM
